Catalogue of IC50 readings, one per entry.
ASSAY_SYSTEM: CRTH2 (KB8 cells) (Homo sapiens)
Construct: host or cells: KB8 cells (human CRTH2 expression cell)
MEASUREMENT_PROTOCOL: CRTH2 antagonist test (PGD2-induced intracellular calcium ion concentration increase in KB8 cells)
Type: cell-based
ASSAY_CONDITIONS: PGD2 final concentration 100 nM, Fluo-4-AM fluorescence, read-out: antagonist activity (IC50 value, inhibition of calcium ion concentration increase)

Before answering, review these 3 worked examples.
Query: Name the reported IC50 value associated with the compound O=C(O)Cc1cnc(Cc2ccc(C(=O)NCCc3ccc(F)c(Cl)c3)cc2)c2ccccc12
Result: < 50 nM

Query: And the next one, O=C(O)Cc1cnc(C(=O)c2ccc(NC(=O)c3c[nH]c4ccccc34)cc2)c2ccccc12 ?
Result: < 50 nM

Query: And the next one, Cc1c(F)c(F)c(C(=O)Nc2ccc(C(=O)c3ncc(CC(=O)O)c4ccccc34)cc2)c(F)c1F ?
Result: 500 to 1000 nM

Continuing:
Query: Name the reported IC50 value associated with the compound O=C(O)Cc1cnc(Cc2ccc(C(=O)NCCc3ccc(C(=O)O)cc3)cc2)c2ccccc12
Result: ≥ 1000 nM

Query: And the next one, O=C(O)Cc1cnc(C(=O)c2ccc(NC(=O)c3ccc(C(F)(F)F)cc3)cc2)c2ccccc12 ?
Result: < 50 nM

Query: And the next one, O=C(O)Cc1cnc(C(=O)c2ccc(NC(=O)c3ccc(C(=O)O)cc3)cc2)c2ccccc12 ?
Result: ≥ 1000 nM

Query: And the next one, Cc1cccc(C)c1CCNC(=O)c1ccc(Cc2ncc(CC(=O)O)c3ccccc23)cc1 ?
Result: < 50 nM

Query: And the next one, O=C(O)Cc1cnc(C(=O)c2ccc(NC(=O)c3ccc(Cl)c(Cl)c3)cc2)c2ccccc12 ?
Result: < 50 nM

---

ASSAY_SYSTEM: CRTH2 (KB8 cells) (Homo sapiens)
Construct: host or cells: KB8 cells (human CRTH2 expression cell)
Sequence (Q9Y5Y4 1-395): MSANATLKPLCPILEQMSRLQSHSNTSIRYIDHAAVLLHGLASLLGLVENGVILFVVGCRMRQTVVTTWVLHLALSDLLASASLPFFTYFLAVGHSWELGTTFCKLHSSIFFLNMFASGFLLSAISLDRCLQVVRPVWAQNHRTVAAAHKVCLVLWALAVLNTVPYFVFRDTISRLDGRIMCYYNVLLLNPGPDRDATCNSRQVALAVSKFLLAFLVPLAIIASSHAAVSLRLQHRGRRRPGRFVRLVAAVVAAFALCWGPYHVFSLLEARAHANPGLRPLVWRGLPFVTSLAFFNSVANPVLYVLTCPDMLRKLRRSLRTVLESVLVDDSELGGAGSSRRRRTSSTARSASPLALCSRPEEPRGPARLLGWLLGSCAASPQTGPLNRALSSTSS
MEASUREMENT_PROTOCOL: CRTH2 antagonist test (PGD2-induced intracellular calcium ion concentration increase in KB8 cells)
Format: cell-based
ASSAY_CONDITIONS: PGD2 final concentration 100 nM, Fluo-4-AM fluorescence, read-out: antagonist activity (IC50 value, inhibition of calcium ion concentration increase)
Catalogue of IC50 readings, one per entry.

Before answering, review these 5 worked examples.
Query: Name the reported IC50 value associated with the compound CC(C)(C(=O)O)c1cnc(C(=O)c2ccc(C(=O)NCCc3ccc(Cl)cc3)cc2)c2ccccc12 [Example 255]
Result: ≥ 1000 nM

Query: And the next one, O=C(O)Cc1cnc(C(=O)c2ccc(NC(=O)c3ccc(F)cc3)cc2)c2ccccc12 [Example 28] ?
Result: < 50 nM

Query: And the next one, Cc1ccc(C)c(C(=O)Nc2ccc(C(=O)c3ncc(CC(=O)O)c4ccccc34)cc2)c1 [Example 44] ?
Result: 50 to 500 nM

Query: And the next one, O=C(O)Cc1cnc(C(=O)c2ccc(NC(=O)c3ccc4cccnc4n3)cc2)c2ccccc12 [Example 105] ?
Result: 500 to 1000 nM

Query: And the next one, O=C(O)Cc1cnc(C(=O)c2ccc(NC(=O)Nc3ccc(Cl)c(Cl)c3)cc2)c2ccccc12 [Example 130] ?
Result: < 50 nM

Continuing:
Query: Name the reported IC50 value associated with the compound O=C(O)Cc1cnc(Cc2ccc(C(=O)NCCc3ccccc3Cl)cc2)c2ccccc12 [Example 162]
Result: < 50 nM

---

Catalogue of pIC50 readings, one per entry.
ASSAY_SYSTEM: CRTH2 (KB8 cells) (Homo sapiens)
Construct: host or cells: KB8 cells (human CRTH2 expression cell)
Sequence (Q9Y5Y4 1-395): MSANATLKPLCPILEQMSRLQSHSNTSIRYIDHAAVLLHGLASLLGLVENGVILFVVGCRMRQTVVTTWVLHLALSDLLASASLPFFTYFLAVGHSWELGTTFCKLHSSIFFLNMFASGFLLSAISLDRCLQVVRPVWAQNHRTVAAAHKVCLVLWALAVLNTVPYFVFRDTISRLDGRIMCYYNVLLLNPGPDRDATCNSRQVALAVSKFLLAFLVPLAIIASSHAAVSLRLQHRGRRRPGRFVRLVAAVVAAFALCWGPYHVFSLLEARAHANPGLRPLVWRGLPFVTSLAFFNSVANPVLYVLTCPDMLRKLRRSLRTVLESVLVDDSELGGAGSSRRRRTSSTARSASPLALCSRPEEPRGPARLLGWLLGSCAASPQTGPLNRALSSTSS
MEASUREMENT_PROTOCOL: CRTH2 antagonist test (PGD2-induced intracellular calcium ion concentration increase in KB8 cells)
Format: cell-based
ASSAY_CONDITIONS: PGD2 final concentration 100 nM, Fluo-4-AM fluorescence, read-out: antagonist activity (IC50 value, inhibition of calcium ion concentration increase)
pIC50: −log10 of the molar value.

Query: Name the reported pIC50 value associated with the compound N#Cc1ccc(CCNC(=O)c2ccc(Cc3ncc(CC(=O)O)c4ccccc34)cc2)cc1
Result: 6.30 to 7.30

Query: And the next one, O=C(O)Cc1cnc(C(=O)c2ccc(C(=O)NCCc3ccc(Cl)c(Cl)c3)cc2)c2ccccc12 ?
Result: > 7.30

Query: And the next one, CN(C)c1ccc(C(=O)Nc2ccc(C(=O)c3ncc(CC(=O)O)c4ccccc34)cc2)cc1 ?
Result: > 7.30

Query: And the next one, O=C(O)Cc1cnc(C(=O)c2ccc(NC(=O)c3ccc(OC(F)(F)F)cc3)cc2)c2ccccc12 ?
Result: > 7.30

Query: And the next one, O=C(O)Cc1cnc(C(=O)c2ccc(NC(=O)C3=CCCCC3)cc2)c2ccccc12 ?
Result: 6.30 to 7.30

---

ASSAY_SYSTEM: CRTH2 (KB8 cells) (Homo sapiens, UniProt Q9Y5Y4)
Construct: host or cells: KB8 cells (human CRTH2 expression cell)
MEASUREMENT_PROTOCOL: CRTH2 antagonist test (PGD2-induced intracellular calcium ion concentration increase in KB8 cells)
Type: cell-based
ASSAY_CONDITIONS: PGD2 100 nM, Fluo-4 calcium fluorescence, read-out: CRTH2 antagonist activity IC50 value
IC50 under 10 nM gets criterion met, anything at or over 10 nM gets criterion not met.

Query: Please indicate whether the reported IC50 of O=C(O)Cc1cnc(Cc2ccc(C(=O)NCCC34CC5CC(CC(C5)C3)C4)cc2)c2ccccc12 [Example 240] is strictly below 10 nM.
Result: criterion met

Continuing:
Query: Please indicate whether the reported IC50 of O=C(O)Cc1cnc(Cc2ccc(C(=O)NCCc3cc4cc(Cl)ccc4[nH]3)cc2)c2ccccc12 [Example 234] is strictly below 10 nM.
Result: criterion met

Query: And the next one, O=C(O)Cc1cnc(C(=O)c2ccc(NC(=O)c3cc4cc(F)ccc4[nH]3)cc2)c2ccccc12 [Example 122] ?
Result: criterion met

Query: And the next one, O=C(O)Cc1cnc(Cc2ccc(C(=O)NCCc3ccc(Cl)cc3)cc2)c2ccccc12 [Example 153] ?
Result: criterion not met

Query: And the next one, O=C(O)Cc1cnc(Cc2ccc(C(=O)NCCc3ccc(C(F)(F)F)cc3)cc2)c2ccccc12 [Example 201] ?
Result: criterion not met

---

Catalogue of pIC50 readings, one per entry.
ASSAY_SYSTEM: CRTH2 (KB8 cells) (Homo sapiens, UniProt Q9Y5Y4)
Construct: host or cells: KB8 cells (human CRTH2 expression cell)
MEASUREMENT_PROTOCOL: CRTH2 antagonist test (PGD2-induced intracellular calcium ion concentration increase in KB8 cells)
Type: cell-based
ASSAY_CONDITIONS: PGD2 final concentration 100 nM, Fluo-4-AM fluorescence, read-out: antagonist activity (IC50 value, inhibition of calcium ion concentration increase)
pIC50: −log10 of the molar value.

Query: GET /values?readout=pIC50&system=CRTH2 (KB8 cells) (Homo sapiens, UniProt Q9Y5Y4)&item= O=C(O)Cc1cnc(C(=O)c2ccc(NC(=O)c3ccc4c(c3)CCCC4)cc2)c2ccccc12
Result: > 7.30

Query: And the next one, O=C(O)Cc1cnc(C(=O)c2ccc(NC(=O)c3ncccn3)cc2)c2ccccc12 ?
Result: 6.00 to 6.30

Query: And the next one, O=C(O)Cc1cnc(C(=O)c2ccc(NC(=O)/C=C/c3ccc(Cl)c(Cl)c3)cc2)c2ccccc12 ?
Result: > 7.30

Continuing:
Query: GET /values?readout=pIC50&system=CRTH2 (KB8 cells) (Homo sapiens, UniProt Q9Y5Y4)&item= O=C(O)Cc1cnc(C(=O)c2ccc(NC(=O)c3ccc(Cl)cc3Cl)cc2)c2ccccc12
Result: 6.30 to 7.30

Query: And the next one, O=C(O)Cc1cnc(C(=O)c2ccc(NC(=O)C3CCC(c4ccc(Cl)cc4)CC3)cc2)c2ccccc12 (stereo not shown) ?
Result: > 7.30

Query: And the next one, O=C(O)Cc1cnc(C(=O)c2ccc(NC(=O)c3cccc(Cl)c3)cc2)c2ccccc12 ?
Result: > 7.30

Query: And the next one, O=C(O)Cc1cnc(C(=O)c2ccc(NC(=O)c3cc4cc(Cl)ccc4[nH]3)cc2)c2ccccc12 ?
Result: > 7.30

Query: And the next one, O=C(O)Cc1cnc(C(=O)c2ccc(NC(=O)c3ccccc3Br)cc2)c2ccccc12 ?
Result: ≤ 6.00

Query: And the next one, O=C(O)Cc1cnc(Cc2ccc(C(=O)NCCc3cccc(Cl)c3)cc2)c2ccccc12 ?
Result: > 7.30

Query: And the next one, CCCCNC(=O)c1ccc(Cc2ncc(CC(=O)O)c3ccccc23)cc1 ?
Result: 6.00 to 6.30

Query: And the next one, O=C(O)Cc1cnc(Cc2ccc(C(=O)NCCc3cc4cc(F)ccc4[nH]3)cc2)c2ccccc12 ?
Result: > 7.30

Query: And the next one, CC(C)(C)c1ccc(CCNC(=O)c2ccc(Cc3ncc(CC(=O)O)c4ccccc34)cc2)cc1 ?
Result: > 7.30

Query: And the next one, Cc1c(C)c(C)c(CCNC(=O)c2ccc(Cc3ncc(CC(=O)O)c4ccccc34)cc2)c(C)c1C ?
Result: > 7.30

Query: And the next one, O=C(O)Cc1cnc(Cc2ccc(C(=O)NCCc3ccccc3Oc3ccccc3)cc2)c2ccccc12 ?
Result: > 7.30

Query: And the next one, O=C(O)Cc1cnc(C(=O)c2ccc(NC(=O)c3cc(F)c(Cl)cc3Cl)cc2)c2ccccc12 ?
Result: 6.30 to 7.30

Query: And the next one, O=C(O)Cc1cnc(Cc2ccc(C(=O)NCC3(c4ccc(Cl)cc4)CC3)cc2)c2ccccc12 ?
Result: 6.30 to 7.30
